Target: T1, FZD8 CRD (Homo sapiens, UniProt Q9H461)
T1 construct: K31-D155; GPI anchor signal (C); expressed in transfected cells; host or cells: CHO cells, lentiviral pLenti-puro
T1 sequence (Q9H461 31-155): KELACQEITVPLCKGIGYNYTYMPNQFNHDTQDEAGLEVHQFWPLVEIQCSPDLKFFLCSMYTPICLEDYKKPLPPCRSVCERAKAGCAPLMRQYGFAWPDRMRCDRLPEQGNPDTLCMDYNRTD
Test: Immunofluorescence of anti-FZD5 Fab binding to CHO cells overexpressing Frizzled CRD
Design: key: −: no binding; +: very weak binder; ++: weak binder; +++: good binder; ++++: very good binder
Metric Name: Immunofluorescence binding, Frizzled CRD overexpressed on CHO cells: FZD8

>  <Molecule>
Fab-2914: anti-FZD5 Fab with antibody variable region Fv-2914; CDR SEQ ID NOs: 35, 36, 53, 92, 129, 162 (antibody, V domains shown) VH: EVQLVESGGGLVQPGGSLRLSCAASGFNIYYSYMHWVRQAPGKGLEWVASIYPSSSSTSYADSVKGRFTISADTSKNTAYLQMNSLRAEDTAVYYCARGAMDYWGQGTLVTVSS VL: DIQMTQSPSSLSASVGDRVTITCRASQSVSSAVAWYQQKPGKAPKLLIYSASSLYSGVPSRFSGSRSGTDFTLTISSLQPEDFATYYCQQWYYGSLITFGQGTKVEIK

>  <Measured Result>
++

$$$$
>  <Molecule>
Fab-2911: anti-FZD5 Fab with antibody variable region Fv-2911; CDR SEQ ID NOs: 35, 36, 50, 89, 126, 163 (antibody, V domains shown) VH: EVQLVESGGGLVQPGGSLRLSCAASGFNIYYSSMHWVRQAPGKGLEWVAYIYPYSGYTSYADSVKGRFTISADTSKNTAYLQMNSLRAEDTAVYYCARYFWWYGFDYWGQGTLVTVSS VL: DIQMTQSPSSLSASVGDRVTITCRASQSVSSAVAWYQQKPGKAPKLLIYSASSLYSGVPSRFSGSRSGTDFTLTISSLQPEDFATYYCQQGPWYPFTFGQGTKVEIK

>  <Measured Result>
−

$$$$
>  <Molecule>
Fab-2913: anti-FZD5 Fab with antibody variable region Fv-2913; CDR SEQ ID NOs: 35, 36, 52, 91, 128, 165 (antibody, V domains shown) VH: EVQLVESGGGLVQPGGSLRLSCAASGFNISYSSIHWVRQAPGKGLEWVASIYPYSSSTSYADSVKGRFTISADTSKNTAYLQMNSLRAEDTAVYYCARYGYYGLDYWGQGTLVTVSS VL: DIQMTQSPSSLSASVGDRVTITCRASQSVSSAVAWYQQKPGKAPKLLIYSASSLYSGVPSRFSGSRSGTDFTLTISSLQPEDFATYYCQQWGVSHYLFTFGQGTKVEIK

>  <Measured Result>
−

$$$$
>  <Molecule>
Fab-2900: anti-FZD5 Fab with antibody variable region Fv-2900; CDR SEQ ID NOs: 35, 36, 39, 78, 115, 153 (antibody, V domains shown) VH: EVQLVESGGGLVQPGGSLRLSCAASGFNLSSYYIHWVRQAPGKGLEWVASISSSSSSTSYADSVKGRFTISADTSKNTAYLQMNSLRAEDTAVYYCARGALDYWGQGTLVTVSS VL: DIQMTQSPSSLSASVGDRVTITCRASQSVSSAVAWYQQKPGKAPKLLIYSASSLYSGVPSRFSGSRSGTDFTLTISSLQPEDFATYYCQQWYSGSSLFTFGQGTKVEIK

>  <Measured Result>
+

$$$$
